These measurements were taken from ChEMBL document CHEMBL1201862.

measured-on: Endoribonuclease toxin MazF (Escherichia coli K-12)
Sequence (P0AE70 whole entry): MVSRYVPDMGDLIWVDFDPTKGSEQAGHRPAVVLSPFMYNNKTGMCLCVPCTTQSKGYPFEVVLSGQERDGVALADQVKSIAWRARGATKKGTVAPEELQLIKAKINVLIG
assay-comment: fluorescent RNA oligo signal without MazF, dose response, counter-screen for MazEF activator project, biochemical, fluorescence, single-stranded RNase substrate (AID 588502)
Assay type: functional
The source made the active and inactive calls.
Answer with one of the outcomes given here: active, inactive

Req: Recorded test call requested for Cc1cc(C)c(C#N)c(SCC(=O)c2cccs2)n1
Resp: inactive

Req: Subsequent entry: CC1=Nc2ccccc2/C1=C\c1nc(-c2ccc(C(F)(F)F)cc2)oc1O
Resp: inactive

Req: Similarly, CCn1c(/C=C/c2c(C)n(CC)c3ccccc23)nc2ccccc2c1=O ?
Resp: inactive

Req: Next molecule up: Cc1ccc(-n2nnnc2SCc2nc3sc(C)c(C)c3c(=O)[nH]2)cc1
Resp: inactive

Req: // same read-out, input: N#C/C(=C(/O)c1ccc([N+](=O)[O-])o1)c1nc2ccccc2[nH]1
Resp: active

Req: Cc1cc(/C=C2\C(=O)NC(=O)N(c3cccc(Br)c3)C2=O)c(C)n1C , same question.
Resp: inactive

Req: Queued: O=[N+]([O-])c1ccc(/C=C/c2ccc3cccc(O)c3n2)cc1
Resp: inactive

Req: Ok, now O=C(O)C(c1ccccc1)N1C(=O)/C(=C\c2ccc(-c3cccc(Cl)c3)o2)SC1=S (stereo not drawn)
Resp: inactive

###

measured-on: Voltage-dependent T-type calcium channel subunit alpha-1H (Homo sapiens)
Sequence (O95180 whole entry): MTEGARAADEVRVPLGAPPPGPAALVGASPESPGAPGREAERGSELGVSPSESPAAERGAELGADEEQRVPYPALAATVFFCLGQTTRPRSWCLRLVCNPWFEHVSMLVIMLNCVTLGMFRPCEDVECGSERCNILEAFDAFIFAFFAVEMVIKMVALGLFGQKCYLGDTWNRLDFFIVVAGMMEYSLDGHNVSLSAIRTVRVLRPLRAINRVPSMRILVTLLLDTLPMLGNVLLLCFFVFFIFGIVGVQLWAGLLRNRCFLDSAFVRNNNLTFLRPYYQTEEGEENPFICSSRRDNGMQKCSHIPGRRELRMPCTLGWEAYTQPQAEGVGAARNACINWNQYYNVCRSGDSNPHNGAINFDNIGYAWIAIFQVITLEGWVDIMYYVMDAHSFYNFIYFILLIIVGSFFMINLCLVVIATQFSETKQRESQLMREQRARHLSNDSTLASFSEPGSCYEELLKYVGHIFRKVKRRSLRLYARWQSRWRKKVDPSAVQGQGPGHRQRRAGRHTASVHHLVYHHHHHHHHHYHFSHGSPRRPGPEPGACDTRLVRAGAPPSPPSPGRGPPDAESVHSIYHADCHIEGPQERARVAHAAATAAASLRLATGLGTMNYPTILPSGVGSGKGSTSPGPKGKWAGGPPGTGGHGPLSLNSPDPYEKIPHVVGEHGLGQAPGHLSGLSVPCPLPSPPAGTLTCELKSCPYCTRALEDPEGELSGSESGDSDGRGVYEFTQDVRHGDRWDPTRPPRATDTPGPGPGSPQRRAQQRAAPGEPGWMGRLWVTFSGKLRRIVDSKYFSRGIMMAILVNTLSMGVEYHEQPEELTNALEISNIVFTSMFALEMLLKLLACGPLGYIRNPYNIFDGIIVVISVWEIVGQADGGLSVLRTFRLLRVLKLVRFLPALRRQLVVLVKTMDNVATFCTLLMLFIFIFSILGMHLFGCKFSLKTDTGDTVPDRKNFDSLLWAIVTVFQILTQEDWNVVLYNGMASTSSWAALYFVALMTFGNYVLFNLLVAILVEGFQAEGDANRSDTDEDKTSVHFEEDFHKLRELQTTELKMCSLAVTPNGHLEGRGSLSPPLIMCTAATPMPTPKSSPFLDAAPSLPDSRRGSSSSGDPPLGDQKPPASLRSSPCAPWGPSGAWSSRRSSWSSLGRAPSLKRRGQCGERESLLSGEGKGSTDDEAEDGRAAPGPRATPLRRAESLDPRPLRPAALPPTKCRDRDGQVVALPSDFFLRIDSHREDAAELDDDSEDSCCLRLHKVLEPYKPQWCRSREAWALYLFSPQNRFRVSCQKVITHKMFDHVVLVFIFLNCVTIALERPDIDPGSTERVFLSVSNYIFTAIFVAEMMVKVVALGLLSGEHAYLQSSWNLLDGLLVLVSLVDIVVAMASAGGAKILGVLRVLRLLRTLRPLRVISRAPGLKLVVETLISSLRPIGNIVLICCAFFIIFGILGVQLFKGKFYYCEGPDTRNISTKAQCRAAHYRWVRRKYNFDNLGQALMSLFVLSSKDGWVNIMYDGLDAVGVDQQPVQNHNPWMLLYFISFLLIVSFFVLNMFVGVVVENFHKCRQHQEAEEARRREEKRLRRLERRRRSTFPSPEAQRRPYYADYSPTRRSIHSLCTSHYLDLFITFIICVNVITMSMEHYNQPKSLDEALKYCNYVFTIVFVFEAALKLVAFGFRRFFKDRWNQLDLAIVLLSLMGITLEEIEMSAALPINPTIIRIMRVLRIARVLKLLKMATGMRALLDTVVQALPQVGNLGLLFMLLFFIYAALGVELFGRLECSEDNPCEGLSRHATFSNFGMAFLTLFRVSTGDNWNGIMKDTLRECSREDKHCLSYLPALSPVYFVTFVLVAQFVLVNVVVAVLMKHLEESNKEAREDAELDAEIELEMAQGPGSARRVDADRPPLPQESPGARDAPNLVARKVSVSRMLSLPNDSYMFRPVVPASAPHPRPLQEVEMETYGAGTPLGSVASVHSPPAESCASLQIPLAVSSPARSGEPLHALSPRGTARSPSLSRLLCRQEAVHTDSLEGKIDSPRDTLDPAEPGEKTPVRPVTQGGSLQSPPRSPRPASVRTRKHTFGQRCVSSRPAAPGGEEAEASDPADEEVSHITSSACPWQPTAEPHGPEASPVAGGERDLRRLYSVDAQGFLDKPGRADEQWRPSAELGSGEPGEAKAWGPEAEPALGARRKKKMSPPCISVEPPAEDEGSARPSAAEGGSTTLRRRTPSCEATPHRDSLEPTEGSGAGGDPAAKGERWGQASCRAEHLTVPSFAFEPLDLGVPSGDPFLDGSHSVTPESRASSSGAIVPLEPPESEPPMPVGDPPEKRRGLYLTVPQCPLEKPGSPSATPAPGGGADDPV
Assay type: functional
Calls of active or inactive are those of the source.
Please go through the items and note down their EC50.

Req: // query EC50 value for entry O=C(CCCCCCN1C(=O)c2ccccc2C1=O)N1CCC(c2ccccc2)C1 (stereo not drawn)
Resp: 0.624 µM (active)

Req: // repeat for Cc1csc(NC(=O)Cc2c[nH]c3ccccc23)n1 and report
Resp: 9.34 µM (active)

Req: Proceed to Cc1ccc(Cl)cc1N1CCN(C(=O)C2(S(=O)(=O)c3ccc(Cl)cc3)CC2)CC1
Resp: 0.928 µM (active)

Req: Please do the same for Nc1c(C(=O)C2CC2)sc2nc(-c3ccccc3)cc(C(F)(F)F)c12 as well.
Resp: 2.51 µM (active)

Req: Lookup O=C(CSc1nc(N2CCCCC2)nc(N2CCCCC2)n1)N1CCN(c2ccccc2)CC1
Resp: 5.36 µM (active)

Req: Now consider COc1ccccc1N1CCN(C(=O)C(Sc2ccccc2)c2ccccc2)CC1 (stereo not drawn) and answer again.
Resp: 4.93 µM (active)

Req: What do we get for Cc1ccc(-c2csc(NC(=O)c3cccc(N4C(=O)CCC4=O)c3)n2)o1 ?
Resp: 3.78 µM (active)

Req: Likewise for CCOc1ccc(C2CC(c3cccc(OC)c3OC)n3nnnc3N2)cc1Cl (stereo not drawn) ?
Resp: 2.66 µM (active)

###

measured-on: Calpain-2 catalytic subunit (Sus scrofa, UniProt P43367)
Sequence (P43367 whole entry): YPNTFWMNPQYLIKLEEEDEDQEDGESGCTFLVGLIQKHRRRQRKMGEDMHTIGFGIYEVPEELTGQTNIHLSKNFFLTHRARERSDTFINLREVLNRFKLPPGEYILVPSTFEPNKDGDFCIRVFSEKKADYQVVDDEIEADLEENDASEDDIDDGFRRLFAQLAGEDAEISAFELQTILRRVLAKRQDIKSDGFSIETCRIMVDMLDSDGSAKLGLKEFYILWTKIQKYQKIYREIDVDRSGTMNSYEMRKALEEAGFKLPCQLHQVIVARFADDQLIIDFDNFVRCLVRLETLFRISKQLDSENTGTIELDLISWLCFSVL
assay-comment: pig calpain II inhibitor potency, dose response, biochemical, fluorogenic peptide substrate (AID 1420)
Type: functional
Calls of active or inactive are those of the source.
property-name: IC50

Req: Please report the recorded IC50 for CC(C)COP(=O)(OCC(C)C)C(Nc1ccccc1)c1ccc2c(c1)OCO2 (stereo not drawn) .
Resp: 11.4 µM (not active)

Req: And O=P(CCCCCCCCCP(=O)(c1ccccc1)c1ccccc1)(c1ccccc1)c1ccccc1 ?
Resp: 12 µM (not active)

Req: Cool, now O=C(CCCCCCN1C(=O)c2ccccc2C1=O)N1CCC(c2ccccc2)C1 (stereo not drawn)
Resp: 7.71 µM (active)

Req: Could you do the same for Oc1ccccc1-c1cc(-c2ccc3c(c2)OCCO3)[nH]n1 , please?
Resp: > 50 µM (not active)

Req: Also check Cn1c(NC(=O)/C=C\c2ccccc2)cc(=O)n(C)c1=O
Resp: 7.1 µM (not active)

Req: Follow-up item: O=C(CCC(=O)N1CCN(S(=O)(=O)c2ccc(Cl)cc2)CC1)Nc1cccc(Br)c1
Resp: 24.9 µM (not active)

Req: Again, but for Cc1cc(NS(=O)(=O)c2ccc(NC(=S)NC(=O)c3ccc(C(C)(C)C)cc3)cc2)no1
Resp: 26.1 µM (not active)

Req: Next compound: Cn1c(N)c(C(=O)COC(=O)CCCc2nc3ccccc3s2)c(=O)n(C)c1=O
Resp: > 50 µM (not active)

###

measured-on: FAD-linked sulfhydryl oxidase ALR (Homo sapiens)
Sequence (P55789 whole entry): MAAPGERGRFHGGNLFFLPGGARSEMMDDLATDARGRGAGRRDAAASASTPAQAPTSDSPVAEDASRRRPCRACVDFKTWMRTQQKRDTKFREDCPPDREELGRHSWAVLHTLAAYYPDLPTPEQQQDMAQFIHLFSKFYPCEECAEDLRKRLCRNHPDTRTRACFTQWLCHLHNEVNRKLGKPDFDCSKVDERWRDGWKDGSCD
assay-comment: inhibitors of human ALR sulfhydryl oxidase, dose response, biochemical, H2O2 detection, luminescence, cherry-pick (AID 493248)
The source made the active and inactive calls.
property-name: AC50

Req: Which value of AC50 has been reported for CCSc1ccc2c(c1)N(CCCN1CCN(C)CC1)c1ccccc1S2 in the records?
Resp: 1.09 µM (active)

Req: C=CCn1c(S)nnc1Cc1cccc2ccccc12 , same question.
Resp: 23.3 µM (active)

Req: Then what about the compound CC(C)c1ccc(/C=C2\C(=N)N3N=C(CC(=O)N4CCCCC4)SC3=NC2=O)cc1 ?
Resp: 5.61 µM (active)

Req: Can you handle Cc1cccc(/C=N/n2c(S)nnc2-c2ccccn2)c1 next?
Resp: 67.5 µM (active)

Req: O=S(=O)(NCC(c1ccco1)N1CCc2ccccc21)c1ccccc1 (configuration not stated) , same question.
Resp: 2.49 µM (active)

Req: What would you report for COc1ccccc1-c1nnc2n1N=C(c1ccc(O)c(O)c1)CS2 ?
Resp: 1.97 µM (active)

Req: Please do the same for O=C(O)C(c1ccccc1)N1C(=O)/C(=C\c2ccc(-c3cccc(Cl)c3)o2)SC1=S (configuration not stated) as well.
Resp: 3.54 µM (active)

Req: Also COc1ccnc(N2CCN(c3ccccc3)CC2)c1C#N ?
Resp: 1.27 µM (active)

Req: And for O=C1CS/C(=N\c2ccc(O)cc2)N1c1ccc(O)cc1 ?
Resp: 3.26 µM (active)

Req: Input O=c1c2c(O)cc(-c3ccccc3)nc2[nH]n1-c1ccccc1
Resp: 3.54 µM (active)

Req: Next: Nc1cc(=O)[nH]n1C1CCN(c2ccccc2)CC1
Resp: 2.61 µM (active)

Req: Same question, CCN(CC)c1ccc(CN(C(=O)c2cc(OC)c(OC)c(OC)c2)C2CCS(=O)(=O)C2)cc1 (configuration not stated) this time
Resp: 9.07 µM (active)

###

The following are reported AC50 results, target or system Cytochrome P450 2C9 (Homo sapiens).

Req: If you can, please state the reported AC50 value of C(=N\N(c1ccccc1)c1ccccc1)/c1ccc2c(c1)OCO2 .
Resp: 8.91 µM (inconclusive)

Req: Follow-up entry: COc1cc(-c2nnc(SCC3(c4ccc(Br)cc4)OCCO3)o2)cc(OC)c1OC
Resp: 39.8 µM (inconclusive)

Req: Let us now turn to O=C(COc1ccccc1-c1ccccc1)N/N=C/c1cccc2ccccc12
Resp: 20 µM (inconclusive)

Req: Another compound: Brc1ccc(/C=C/C=N/Nc2nc3ccccc3s2)cc1
Resp: 7.08 µM (inconclusive)

Req: Queued: Cc1cc(Cl)ccc1OCC(=O)N/N=C1\CCCc2ccccc21
Resp: 3.55 µM (inconclusive)

Req: Now the same for O=C1c2ccccc2NC(c2ccc(Cl)cc2Cl)N1O (stereo unspecified)
Resp: 25.1 µM (inconclusive)

Req: One more compound: O=C(NCC(c1cccs1)N1CCOCC1)c1ccco1 (stereo unspecified)
Resp: 22.4 µM (inconclusive)

Req: Same again, this time with C(=N\Nc1nc(Nc2ccccc2)nc(N2CCOCC2)n1)/c1c[nH]c2ccccc12
Resp: 17.8 µM (inconclusive)

Req: Now give it for O=C1C2C3C=CC([C@@H]2C(=O)N1C1CCCCC1)[C@H]1C(=O)N(C2CCCCC2)C(=O)C31 (stereo partly specified) too.
Resp: 6.31 µM (inconclusive)

Req: Further, for Cc1ccc(-n2[nH]c(=O)c3cccnc32)cc1 ?
Resp: 28.2 µM (inconclusive)

Req: Please give the result for Cc1cc(N)n2ncc(-c3ccc(Cl)cc3)c2n1 too.
Resp: 31.6 µM (inconclusive)

###

measured-on: UniProt:P10520
Sequence (P10520 whole entry): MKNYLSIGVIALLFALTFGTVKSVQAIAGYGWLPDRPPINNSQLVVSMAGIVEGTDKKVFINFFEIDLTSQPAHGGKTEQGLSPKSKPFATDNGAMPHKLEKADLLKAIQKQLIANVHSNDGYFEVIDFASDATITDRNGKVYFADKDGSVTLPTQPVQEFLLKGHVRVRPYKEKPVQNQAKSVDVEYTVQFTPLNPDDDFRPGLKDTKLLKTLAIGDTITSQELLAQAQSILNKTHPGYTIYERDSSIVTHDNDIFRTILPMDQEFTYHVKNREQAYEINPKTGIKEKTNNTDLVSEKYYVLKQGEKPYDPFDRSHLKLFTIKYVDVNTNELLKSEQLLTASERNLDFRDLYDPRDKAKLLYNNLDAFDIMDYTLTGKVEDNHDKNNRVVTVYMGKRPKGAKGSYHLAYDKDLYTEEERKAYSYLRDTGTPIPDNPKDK
assay-comment: S. pyogenes streptokinase expression inhibitors, potency, dose response, plasminogen activation absorbance, OD405 (AID 1914);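 also: secreted streptokinase activity via plasminogen activation per viability signal from cell pellet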
Format: functional, Streptococcus pyogenes M1 GAS
Calls of active or inactive are those of the source.
property-name: EC50

Req: Could you share which EC50 value was measured for Cc1cc2c(=O)n(Cc3ccco3)c(SCC(=O)N3CCCc4ccccc43)nc2s1 ?
Resp: 31.8 µM (active)

Req: Repeat with CCN(CC)c1ccc(/C=N/NC(=S)NCc2ccccc2)c(O)c1
Resp: > 150 µM (not active)

Req: # repeat for O=C(NCC1CCN(Cc2ccccc2Cl)CC1)Nc1cccc(Cl)c1
Resp: 49.3 µM (active)

Req: Now the same for COc1ccc2[nH]c3c(C)c4ccncc4c(C)c3c2c1
Resp: > 150 µM (not active)

Req: Same lookup for CC(C)n1c(=O)c2c(=O)cc(O)oc2c2ccccc21 , please.
Resp: > 150 µM (not active)

Req: O=C(OCc1ccc(-c2ccccc2)cc1)c1cccc(O)c1 , same question.
Resp: 22.4 µM (active)

Req: Now give it for CCc1nc(SCC(=O)Nc2ccccc2OC)c2c(C)c(C)sc2n1 too.
Resp: > 150 µM (not active)

Req: Quick one: O=C(O)C(c1ccccc1)N1C(=O)/C(=C\c2ccc(-c3cccc(Cl)c3)o2)SC1=S (stereo not drawn)
Resp: 1.37 µM (active)

Req: What would you report for N#C/C(=C(/O)c1ccc([N+](=O)[O-])o1)c1nc2ccccc2[nH]1 ?
Resp: 27.6 µM (active)

Req: Same question, O=C(NNc1ccccc1Cl)C(O)(c1cccc(C(F)(F)F)c1)c1cccc(C(F)(F)F)c1 this time
Resp: 3.16 µM (active)

Req: Similarly, CCOC(=O)/C(=N\Nc1ccc(OC)cc1)c1csc(Nc2ccccc2)n1 ?
Resp: > 150 µM (not active)

Req: And then COc1cc2nc(S)n3nc(COc4ccccc4C)nc3c2cc1OC , what is it?
Resp: > 150 µM (not active)

Req: Would you mind doing COc1cc(OC)cc(C(=O)NC(=S)N2CCN(c3ccc(C(F)(F)F)cc3[N+](=O)[O-])CC2)c1 as well?
Resp: > 150 µM (not active)

Req: What about CCCCCCCCCCCCCCCC[N+](C)(C)CC ?
Resp: 23.2 µM (inconclusive)

Req: Again, but for CCOC(=O)c1c(NC(=O)COC(=O)c2ccc(C)s2)sc2c1CC(C)(C)NC2(C)C
Resp: > 150 µM (not active)

Req: Another compound: Cc1cc(C)c(C)c(OCCCOc2cccc3cccnc23)c1
Resp: > 150 µM (not active)

Req: Let us now turn to Cc1cccc(NC(=O)c2sc(Cl)nc2-c2ccccc2)c1
Resp: > 150 µM (not active)

Req: Thanks! And CCn1cc(C(=O)OCC(=O)c2cc(C)n(-c3cccc(C(F)(F)F)c3)c2C)c(=O)c2ccc(C)nc21 ?
Resp: 21.6 µM (active)

Req: Further, for Cc1nn(-c2ccccc2)c(C)c1/C=N/NC(=O)c1cc(-c2ccc(Cl)s2)[nH]n1 ?
Resp: > 150 µM (not active)

Req: What about COc1ccc(CCNC(=O)CSc2nncn2N)cc1OC ?
Resp: > 150 µM (not active)

Req: Try C=C1CCC2C(C)(C)[C@@H](O)CC[C@@]2(C)[C@@H]1COc1ccc2ccc(=O)oc2c1 (stereo partly drawn) next.
Resp: 6.72 µM (active)

Req: Moving on to the next compound: CCCCC(=O)NNC(=S)NC(=O)C(c1ccccc1)c1ccccc1
Resp: > 150 µM (not active)

Req: // repeat for CCC1CCCCN1c1cc(C)nc2cc(-c3cccc(C)c3)nn12 (stereo not drawn) and report
Resp: 15.3 µM (active)
